# maps each entry to its CC50 at 2 days
- assayInfo: Anti-cancer activity, EBC-1
- Type: cell-based, human
- conditionContext: human, EBC-1 cells (lung cancer cells); EBC-1, lung cancer; read-out: LC50
Where no end group is shown, it is not given here.

[
  {
    "polymerSequence": "ALRALRALRALRALRALR [ALR6, ALRALRALRALRALRALR]",
    "CC50 at 2 days": "> 100 µM"
  }
]

Now for another entry.
Memo: KVLKVLKVLKVLKVLKVL [KVL6, KVLKVLKVLKVLKVLKVL] , reported CC50 at 2 days: > 100 µM

====

- assayInfo: Anti-cancer activity, HCT116 cell
- Format: cell-based, human
- conditionContext: 2 days, sulforhodamine B, read-out: LC50 (the source's name)
Where no end group is shown, it is not given here.
endpointName: CC50 (µM)
Report as a plain number; the unit µM is understood.

Memo: RNWRGIAGMARRLLGRNWRLM [mast21R] , reported CC50: 2

====

# maps each entry to its log10(MIC)
- System: E. coli CE-273
- conditionContext: CE-273, 18 h
Where no end group is shown, it is not given here.
// do not treat as linear: log10 of MIC, unit µM

[
  {
    "substance": "KVLINWKGIAAMAKKII [KVL-mastX, KVL INWKGIAAMAKKII]",
    "target": "E. coli CE-273",
    "numericResult": 1.40
  },
  {
    "substance": "ALRALRALRALRALR [ALR5, ALRALRALRALRALR]",
    "target": "E. coli CE-273",
    "numericResult": 2.00
  },
  {
    "substance": "KVLKVLKVLKVLKVL [KVL5, KVLKVLKVLKVLKVL]",
    "target": "E. coli CE-273",
    "numericResult": 0.80
  },
  {
    "substance": "RVGINWKGIAAMAKKII [RVG-mastX, RVG INWKGIAAMAKKII]",
    "target": "E. coli CE-273",
    "numericResult": 1.70
  },
  {
    "substance": "KVLALRL [KVL+, KVL ALRL]",
    "target": "E. coli CE-273",
    "numericResult": 0.49
  }
]

Memo: KNWKGIAGMAKKLLGKNWKLM [mast21, reference compound] , reported log10(MIC): 0.49

Memo: INWKGIAAMAKKLL [mastoparanX, INWKGIAAMAKKLL, reference compound] , reported log10(MIC): 0.49

Memo: RNWRGIAGMARRLLGRNWRLM [mast21R] , reported log10(MIC): 0.49

Memo: KNWKGIAGMAKKLLGKNWKLM-NH2 [mast21N] , reported log10(MIC): 0.49

Memo: KNRKGIAGMAKKLLGNKWKLM [mastWR] , reported log10(MIC): 1.10

====

- assayInfo: Anti-cancer activity, EJ-1 cell
- Assay type: cell-based, human
- conditionContext: bladder cancer, read-out: LC50 (the source's name)
Where no end group is shown, it is not given here.
# maps each entry to its CC50

[
  {
    "polymerSequence": "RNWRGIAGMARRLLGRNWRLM [mast21R]",
    "CC50": "20 µM"
  }
]

Now for another entry.
Memo: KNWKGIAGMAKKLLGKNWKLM [mast21, reference compound] , reported CC50: 70 µM

These entries and their values trace back to patent US20040072992A1.
